Sourced from patent US12091402B2

Target: UniProt:P07306
Sequence (P07306 1-291): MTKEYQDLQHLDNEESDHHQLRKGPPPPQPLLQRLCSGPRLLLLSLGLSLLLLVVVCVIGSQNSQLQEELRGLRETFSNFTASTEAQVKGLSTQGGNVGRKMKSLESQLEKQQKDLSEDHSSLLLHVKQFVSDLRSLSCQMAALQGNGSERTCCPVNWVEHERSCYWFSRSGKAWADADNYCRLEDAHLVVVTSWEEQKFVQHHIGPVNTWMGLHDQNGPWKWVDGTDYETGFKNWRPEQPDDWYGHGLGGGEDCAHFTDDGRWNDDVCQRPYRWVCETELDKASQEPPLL
Assay: Affinity to ASGPR by surface plasmon resonance (SPR)
EXPERIMENTAL ENDPOINT: Kd

Check out these entries, answers already filled in.
* C=CCO[C@H]1O[C@H](Cn2cc(-c3cccc(OC)c3)nn2)[C@H](O)[C@H](O)[C@H]1NC(=O)C(F)(F)F | 1000 to 10000 nM
* OC[C@H]1OC[C@H](Nc2ccc(F)c(C(F)(F)F)n2)[C@@H](O)[C@H]1O | 1000 to 10000 nM
* C=CCO[C@H]1O[C@H](CO)[C@H](O)[C@H](O)[C@H]1N | > 20000 nM

# map each molecule to its Kd
1. O=C(CCOCC(COCCC(=O)NCCOCCOCCOCCOC[C@H]1OC[C@H](Nc2nccc(C(F)(F)F)n2)[C@@H](O)[C@H]1O)NC(=O)COCCOCCOCC(=O)N1CCN(Cc2ccc(-c3c[nH]c4ccncc34)c(OCCc3ccc(-c4cccc5ccncc45)cc3)c2)CC1)NCCOCCOCCOCCOC[C@H]1OC[C@H](Nc2nccc(C(F)(F)F)n2)[C@@H](O)[C@H]1O
2. CCOC(=O)c1cnc(C(F)(F)F)nc1N[C@H]1[C@H]2OC[C@](CO)(O2)[C@H](O)[C@@H]1O
3. C=CCO[C@H]1O[C@H](Cn2ccnn2)[C@H](O)[C@H](O)[C@H]1NC(=O)C(F)(F)F

output:
1: < 1 nM; 2: 1000 to 10000 nM; 3: < 1000 nM

----------
biological target: ASGPR receptor on the cell surface (HepG2 cells) (Homo sapiens); construct: host or cells: HepG2; test: Ternary complex formation assay (flow cytometry, HepG2); assay type: cell-based
EXPERIMENTAL ENDPOINT: EC50

The compound CC(C)C[C@@H]1NC(=O)[C@H](Cc2cnc[nH]2)NC(=O)[C@H](Cc2c[nH]c3ccccc23)NC(=O)[C@H](C)NC(=O)[C@@H]2CSSC[C@H](NC(=O)[C@H](Cc3c[nH]c4ccccc34)NC(=O)[C@H](C(C)C)NC(=O)[C@H](CC(C)C)NC(=O)[C@H](CCC(=O)O)NC(=O)CNC1=O)C(=O)N[C@@H]([C@@H](C)O)C(=O)N1CCC[C@@H]1C(=O)N1C[C@@H](NC(=O)CCOCCNC(=O)CCCc3cn(C[C@@]45CO[C@@H](O4)[C@H](Nc4nc(Cl)ns4)[C@@H](O)[C@H]5O)nn3)C[C@H]1C(=O)N[C@@H](CC(=O)O)C(=O)N2 showed EC50 equal to < 100 nM

----------
Molecular target: IgG
Experiment: Affinity to IgG by surface plasmon resonance (SPR)
Assay type: binding
Conditions: Biacore 8K, 25° C., IgG on CM5 chip; read-out: IgG SPR Binding Kd
Description: Immobilization levels ranging from 1000-1300 resonance units (RU) are obtained. The running buffer is 10 mM HEPES, pH 7.4, 400 mM NaCl, 0.005% P20, […].
pKd: −log10 of the molar value.
EXPERIMENTAL ENDPOINT: pKd

* C#CCCCC(=O)NCCOCCOCCOCCOCCN[C@@H](CC(=O)O)C(=O)N[C@H]1CSSC[C@@H](C(=O)N[C@H](C(N)=O)[C@@H](C)O)NC(=O)[C@H](Cc2c[nH]c3ccccc23)NC(=O)[C@H](C(C)C)NC(=O)[C@H](CC(C)C)NC(=O)[C@H](CCC(=O)O)NC(=O)CNC(=O)[C@H](CC(C)C)NC(=O)[C@H](Cc2cnc[nH]2)NC(=O)[C@H](Cc2c[nH]c3ccccc23)NC(=O)[C@H](C)NC1=O [Intermediate 3] | > 7.00

Would you kindly look at the next entry?
The value of pKd measured for the molecule CC(C)C[C@@H]1NC(=O)[C@H](Cc2cnc[nH]2)NC(=O)[C@H](Cc2c[nH]c3ccccc23)NC(=O)[C@H](C)NC(=O)[C@@H]2CSSC[C@H](NC(=O)[C@@H](Cc3c[nH]c4ccccc34)NC(=O)[C@H](C(C)C)NC(=O)[C@H](CC(C)C)NC(=O)[C@H](CCC(=O)O)NC(=O)CNC1=O)C(=O)N[C@@H]([C@@H](C)O)C(=O)N1CCC[C@@H]1C(=O)N1C[C@@H](N)C[C@H]1C(=O)N[C@@H](CC(=O)O)C(=O)N2 (stereo in doubt) [Intermediate 24] turned out to be > 7.00
